target: K1250A CFTR (Homo sapiens, UniProt P13569, K1250A); assay: Macroscopic pore-block/permeation assay on locked-open K1250A CFTR currents; conditions: K1/2 for enhancement of locked-open K1250A current, 60 mV; tentative Hill fit
Sequence (P13569 whole entry K1250A): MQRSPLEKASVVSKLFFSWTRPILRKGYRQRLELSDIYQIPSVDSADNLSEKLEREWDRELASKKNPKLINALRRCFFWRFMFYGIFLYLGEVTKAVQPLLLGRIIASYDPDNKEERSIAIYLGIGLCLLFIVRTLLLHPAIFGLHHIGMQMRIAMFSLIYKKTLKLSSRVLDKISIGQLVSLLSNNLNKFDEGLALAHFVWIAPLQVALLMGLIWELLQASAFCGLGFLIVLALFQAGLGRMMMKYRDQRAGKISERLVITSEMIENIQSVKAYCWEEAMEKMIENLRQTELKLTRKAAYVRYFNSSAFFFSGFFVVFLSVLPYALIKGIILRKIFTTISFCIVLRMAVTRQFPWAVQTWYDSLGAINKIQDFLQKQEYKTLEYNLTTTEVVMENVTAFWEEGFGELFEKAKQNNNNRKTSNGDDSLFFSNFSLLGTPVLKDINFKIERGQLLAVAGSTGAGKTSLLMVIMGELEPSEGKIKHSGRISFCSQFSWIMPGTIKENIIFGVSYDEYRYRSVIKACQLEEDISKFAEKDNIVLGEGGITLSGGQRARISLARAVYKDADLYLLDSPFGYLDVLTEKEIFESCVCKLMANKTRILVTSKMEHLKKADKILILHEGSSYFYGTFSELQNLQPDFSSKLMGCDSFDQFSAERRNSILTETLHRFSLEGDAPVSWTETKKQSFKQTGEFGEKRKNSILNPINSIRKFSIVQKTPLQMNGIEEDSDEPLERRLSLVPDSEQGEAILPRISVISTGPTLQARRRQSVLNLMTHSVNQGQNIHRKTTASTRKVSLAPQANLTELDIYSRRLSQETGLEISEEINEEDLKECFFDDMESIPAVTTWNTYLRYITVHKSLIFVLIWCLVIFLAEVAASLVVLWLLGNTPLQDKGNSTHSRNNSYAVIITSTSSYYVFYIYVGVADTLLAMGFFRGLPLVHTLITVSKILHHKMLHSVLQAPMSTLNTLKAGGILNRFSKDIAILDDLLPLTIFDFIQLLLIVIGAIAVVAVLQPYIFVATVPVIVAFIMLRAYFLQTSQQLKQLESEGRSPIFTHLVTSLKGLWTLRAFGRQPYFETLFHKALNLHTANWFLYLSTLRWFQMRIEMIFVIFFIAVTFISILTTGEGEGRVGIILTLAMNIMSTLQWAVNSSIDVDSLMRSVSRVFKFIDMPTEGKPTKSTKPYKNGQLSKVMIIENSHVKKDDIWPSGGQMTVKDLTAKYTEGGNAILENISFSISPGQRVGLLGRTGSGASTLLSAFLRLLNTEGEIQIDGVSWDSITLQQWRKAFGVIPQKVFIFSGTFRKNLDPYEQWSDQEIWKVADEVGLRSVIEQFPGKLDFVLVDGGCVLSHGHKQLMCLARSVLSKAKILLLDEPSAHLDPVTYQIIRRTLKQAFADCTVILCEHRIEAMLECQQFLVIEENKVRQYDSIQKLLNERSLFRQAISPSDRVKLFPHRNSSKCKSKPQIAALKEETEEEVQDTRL
measurement.name: EC50

Consider the compound NCCCc1ccccc1 [3PP, 3-phenylpropylamine] . State its measured EC50.
~10 mM

###

target: CFTR pore-binding site (Homo sapiens, UniProt P13569, K1250A); assay: Estimated dissociation constants and free enthalpies of binding in the pore; type: biochemical; conditions: Kd(0) estimate for binding in the pore, assuming z = 0.2
measurement.name: Kd (mM)
Numbers only, in mM.

Using the record for NCCCc1ccccc1 [3PP, 3-phenylpropylamine] , state its measured Kd.
16
